B1: POLD4 (parent)
chain: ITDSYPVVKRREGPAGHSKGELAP

- Variants of: B1
- Method: protein stability index of a GFP-peptide fusion (GPS, HEK-293T) (PSI 1-6); higher = more stable;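 further: lentivirally expressed fusions sorted by FACS into six bins by GFP to DsRed ratio, PSI derived from sequencing read proportions per bin multiplied by bin number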
- Protocol Conditions: c terminus: a fixed tail appended
Grouping key: protein stability index. Bins: lower level: < 3; middle level: ≥ 3 and < 4; upper level: ≥ 4

# classify by protein stability index band: A15S
lower level

# classify by protein stability index band: I1F
lower level

# classify by protein stability index band: K9F
middle level

# classify by protein stability index band: P6I
upper level

# classify by protein stability index band: R10G
upper level

# classify by protein stability index band: R11G
middle level

# classify by protein stability index band: E21H
middle level

# classify by protein stability index band: A15T
lower level

# classify by protein stability index band: L22I
middle level

# classify by protein stability index band: A23G
lower level

# classify by protein stability index band: Y5C
middle level

# classify by protein stability index band: Y5H
upper level

# classify by protein stability index band: R10I
middle level

# classify by protein stability index band: G16D
middle level

# classify by protein stability index band: G16V
lower level

# classify by protein stability index band: R11E
upper level
